Property: OD450; scope: individual binders
biological target: T1, human MSLN-hFc protein (Acro, Cat. No. MSN-H5253) (human, UniProt Q13421 296-580); experiment: ELISA on coated antigen, antibody 10 nM
T1 construct: the method names the coated protein as human MSLN-hFc (Acro); also called human MSLN full-length protein
T1 sequence (Q13421 other isoform, or with tags, fused parts or gaps limits assumed): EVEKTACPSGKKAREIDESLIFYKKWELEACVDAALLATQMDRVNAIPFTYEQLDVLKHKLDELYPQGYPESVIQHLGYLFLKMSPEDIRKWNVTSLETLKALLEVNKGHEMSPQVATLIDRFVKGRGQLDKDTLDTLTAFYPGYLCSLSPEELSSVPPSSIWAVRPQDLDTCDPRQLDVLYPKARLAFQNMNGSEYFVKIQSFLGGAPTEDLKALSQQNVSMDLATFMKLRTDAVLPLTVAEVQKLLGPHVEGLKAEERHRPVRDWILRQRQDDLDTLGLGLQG
Numbers only; they are read as OD450.

>  <BINDER>
F7.44.20-H9 (scFv, not shown: small tags and cut ends, also called S009-F7.44.20 humanized antibody VH2 + VL1) scFv: EVQLVQSGAEVKKPGASVKVSCKASGYTFTDYNMDWVRQAPGQGLEWMGDINPSTGGTIYNQKFNGRVTMTEDKSASTVYMELSSLRSEDTAVYYCARRRIGTGYFDVWGQGTTVTVSSGGGGSGGGGSGGGGSEIVLTQSPDFQSVTPKEKVTITCSASSSVISSYLSWYQQKPDQSPKLLIYRTSNLASGVPSRFSGSGSGTDFTLTINSLEAEDAATYYCHQWSSFPYTFGGGTKVEIK

>  <UNIT SPEC>
OD450

>  <OD450>
2.97

$$$$
>  <BINDER>
F7.44.20-H5 (scFv, not shown: small tags and cut ends, also called S009-F7.44.20 humanized antibody VH1a + VL1) scFv: EVQLVQSGAEVKKPGASVKVSCKASGYTFTDYNMDWVRQAPGQGLEWMGDINPSTGGTIYNQKFQGRVTMTEDKSTSTVYMELSSLRSEDTAVYYCARRRIGTGYFDVWGQGTTVTVSSGGGGSGGGGSGGGGSEIVLTQSPDFQSVTPKEKVTITCSASSSVISSYLSWYQQKPDQSPKLLIYRTSNLASGVPSRFSGSGSGTDFTLTINSLEAEDAATYYCHQWSSFPYTFGGGTKVEIK

>  <UNIT SPEC>
OD450

>  <OD450>
3.01

$$$$

Turning to the following binder.
Recorded OD450 of F7.44.20-H1 (scFv, not shown: small tags and cut ends, also called S009-F7.44.20 humanized antibody VH1 + VL1) scFv: EVQLVQSGAEVKKPGASVKVSCKASGYTFTDYNMDWVRQAPGQGLEWMGDINPSTGGTIYNQKFNGRVTMTEDKSTSTVYMELSSLRSEDTAVYYCARRRIGTGYFDVWGQGTTVTVSSGGGGSGGGGSGGGGSEIVLTQSPDFQSVTPKEKVTITCSASSSVISSYLSWYQQKPDQSPKLLIYRTSNLASGVPSRFSGSGSGTDFTLTINSLEAEDAATYYCHQWSSFPYTFGGGTKVEIK , please. 2.94
